experimental_target: FAAH (Homo sapiens, UniProt O00519)
Construct: The full length FAAH was subcloned into the mammalian expression vector, pcDEF.neo; expressed in transfected cells; cDNA from Origene
Sequence (O00519 whole entry): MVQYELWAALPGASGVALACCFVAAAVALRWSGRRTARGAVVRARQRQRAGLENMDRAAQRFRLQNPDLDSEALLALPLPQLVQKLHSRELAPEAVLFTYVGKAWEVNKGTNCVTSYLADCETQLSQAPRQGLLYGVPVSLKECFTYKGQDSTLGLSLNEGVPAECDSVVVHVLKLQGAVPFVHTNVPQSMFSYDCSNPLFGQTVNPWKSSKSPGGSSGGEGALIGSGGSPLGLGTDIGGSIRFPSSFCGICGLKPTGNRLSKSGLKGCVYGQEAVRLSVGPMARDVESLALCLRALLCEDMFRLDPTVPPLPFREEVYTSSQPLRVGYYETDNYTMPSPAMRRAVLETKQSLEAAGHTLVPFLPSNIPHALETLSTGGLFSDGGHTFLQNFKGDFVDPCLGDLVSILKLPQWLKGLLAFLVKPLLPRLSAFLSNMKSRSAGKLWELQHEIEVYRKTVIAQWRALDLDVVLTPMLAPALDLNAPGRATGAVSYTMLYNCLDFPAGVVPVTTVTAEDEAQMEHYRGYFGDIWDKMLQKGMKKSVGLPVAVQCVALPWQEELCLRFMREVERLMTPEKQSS
procedure_text: FAAH enzyme assay, lysate of CHO cells expressing human FAAH
Assay type: biochemical
test_parameters: cell lysate, read-out: FAAH Human Cell Lysate IC50
reported_property: IC50 (nM)

[[record]]
molecule = "O=c1[nH]cnc2cc(-c3nn(C4CC4)cc3Sc3ccc(Cl)cc3)ccc12 [Example 315]"
reported_property = "IC50"
measured = 86

[[record]]
molecule = "CC(C)(O)c1ccc(-c2nn(-c3ccc(F)cn3)cc2Sc2ccc(Cl)cn2)nn1 [Example 350]"
reported_property = "IC50"
measured = 103


1 = Clc1ccc(Sc2cn(C3CC3)nc2-c2ccc3nc(Cl)ccc3c2)cc1 [Example 386]
2 = CCC(=O)N1CCc2cc(-c3nn(CCF)cc3Sc3ccc(Cl)cc3)ccc2C1 [Example 390]
Could you point out whether the larger IC50 belongs to 1 or to 2 ? Answer by stating the label of the chosen item.
1
